Please go through the items and note down their log10(Relative cAMP EC50).
- SYSTEM TESTED: T1, human GIP receptor (human) (UniProt P48546)
- T1 sequence (looked up): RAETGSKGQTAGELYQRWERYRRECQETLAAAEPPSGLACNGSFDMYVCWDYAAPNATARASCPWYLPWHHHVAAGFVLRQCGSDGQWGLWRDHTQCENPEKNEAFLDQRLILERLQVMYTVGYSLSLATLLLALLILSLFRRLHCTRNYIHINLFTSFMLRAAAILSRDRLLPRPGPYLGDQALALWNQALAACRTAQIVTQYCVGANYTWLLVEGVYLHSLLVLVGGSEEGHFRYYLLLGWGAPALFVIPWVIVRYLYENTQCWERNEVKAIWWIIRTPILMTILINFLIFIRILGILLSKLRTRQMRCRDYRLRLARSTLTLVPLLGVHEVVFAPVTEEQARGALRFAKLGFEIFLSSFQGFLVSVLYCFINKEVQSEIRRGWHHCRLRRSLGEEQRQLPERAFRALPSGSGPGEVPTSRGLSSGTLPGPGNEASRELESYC
- PROCEDURE SUMMARY: cell-based or functional assay
Non-standard residues stand in square brackets, D forms with d. No end group written: not given here. αMeL = CC(C)C[C@](C)(N)C(=O)O; Aib = CC(C)(N)C(=O)O
Short version: log10 scale, Relative cAMP EC50, nM.

BINDER	DATA VALUE
YXQGTFTSDFSXXLDKKAQXAFIEWLLEGGPSSGAPPPTGS (synthetic construct; SITE 2: note = 2-Aminoisobutyric Acid; SITE 12: note = L-ornithine; SITE 13: note = alpha-methyl-leucine; SITE 17: note = Lysine is chemically modified through conjugation of the epsilon-amino group of the Lysine side chain with (2-[2-(2-Amino-ethoxy)-ethoxy]-acetyl)-(gamma-Glu)) [Example 250]	-0.81
YXQGTFTSDXSQXLDKKAQXAFIEXLIEXGPSSGEPPPSGSEE (Aib, 4Pal, Me4Pal, αMeL; lipidated Lys; C-terminal amide; synthetic construct; SITE 2: note = 2-Aminoisobutyric Acid; SITE 10: note = 3-(4-Pyridyl)-L-alanine; SITE 13: note = alpha-methyl-leucine; SITE 17: note = Lysine is chemically modified through conjugation of the epsilon-amino group of the Lysine side chain with (gamma-Glu)2-CO-(CH2)16-CO2H; SITE 20:) [Example 1125]	-0.76
YXQGTFTSDXSQXLDXKAQXAFIQXLIEGGPSSGAPPPSGSEEE (Glu-γGlu-C18 diacid on Lys; non-natural residues; amide; synthetic construct; SITE 2: note = 2-Aminoisobutyric Acid; SITE 10: note = 3-(4-Pyridyl)-L-alanine; SITE 13: note = alpha-methyl-leucine; SITE 16: note = L-ornithine; SITE 17: note = Lysine is chemically modified through conjugation of the epsilon-amino group of the Lysine side chain with (Glu)-(ga)) [Example 1077]	-0.64
YXQGTFTSDXSQXLDXKAQXAFIEXLIEGGPSSGAPPPSGSEEE (acylated Lys e-γGlu-C18 diacid; non-natural residues; C-terminal amide; synthetic construct; SITE 2: note = 2-Aminoisobutyric Acid; SITE 10: note = 3-(4-Pyridyl)-L-alanine; SITE 13: note = alpha-methyl-leucine; SITE 16: note = L-ornithine; SITE 17: note = Lysine is chemically modified through conjugation of the epsilon-amino group of the Lysine side chain with D-Glutami) [Example 1071]	-0.58

Please give log10(Relative cAMP EC50), item by item, for the list that follows.
1. YXQGTXTSDXSIXLDKKAQXAFIEYLEEGGPSSGAPPPEGTGE (non-natural residues, (γGlu)2-diacid acylated Lys, C-terminal amide; synthetic construct; SITE 2: note = 2-Aminoisobutyric Acid; SITE 6: note = alpha-methyl-2-fluoro-L-phenylalanine; SITE 10: note = 3-(4-Pyridyl)-L-alanine; SITE 13: note = alpha-methyl-leucine; SITE 17: note = Lysine is chemically modified through conjugation of the epsilon-amino group of the Lysine) [Example 626]
2. Y[Aib]QGTFTSDYSI[αMeL]LDKQAAKQFVEWLLA[Aib]GPSSGEPPPSEG (not fully specified (residue 20)) [Example 329]
3. YXQGTFTSDFSXXLDKKAQXAFIEYLLEAGPSSGAPPPSGT (non-natural residues, (γGlu)2-C18 diacid lysine acylation, C-terminal amide; synthetic construct; SITE 2: note = 2-Aminoisobutyric Acid; SITE 12: note = L-ornithine; SITE 13: note = alpha-methyl-leucine; SITE 17: note = Lysine is chemically modified through conjugation of the epsilon-amino group of the Lysine side chain with (gamma-Glu)2-CO-(CH2)16-CO2H; SITE 20: note = 2-Am) [Example 204]
4. YXQGTXTSDXXIXLDXKAQXEFIEXLIEGGPSSGAPPPSGE (non-natural residues; acylated Lys; C-terminal amide; synthetic construct; SITE 2: note = 2-Aminoisobutyric Acid; SITE 6: note = alpha-methyl-L-phenylalanine; SITE 10: note = 3-(4-Pyridyl)-L-alanine; SITE 11: note = alpha-methyl-L-serine; SITE 13: note = alpha-methyl-leucine; SITE 16: note = L-ornithine; SITE 17: note = Lysine is chemically modified th) [Example 1170]

1: -1.72; 2: -0.68; 3: -0.74; 4: -2.11
